Values were extracted from paper PMC9838217.

Target: SALL4 ZFC4 R900W (HT-SELEX) (Mus musculus, UniProt Q8BX22 870-940, R900W)
Sequence: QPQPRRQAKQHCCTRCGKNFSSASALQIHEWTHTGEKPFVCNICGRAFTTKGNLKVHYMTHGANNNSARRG
Test: HT-SELEX; high values mean tight binding
Details: protein: recombinant; vector His6-GST; dsDNA, one strand shown
Tag: 1 if measured binding signal is not below 0.6 fold-change vs cycle 0, 0 if it is.

[[record]]
chain_sequence = "TGTGAA"
class_label = 1

[[record]]
chain_sequence = "GCCAAA"
class_label = 0

[[record]]
chain_sequence = "TCAGCA"
class_label = 1

[[record]]
chain_sequence = "GTGCGA"
class_label = 0

[[record]]
chain_sequence = "GCAGCA"
class_label = 0


Lab note: next sequence to report on.
Qu. Form field: binding signal at least 0.6 fold-change vs cycle 0? Entry: CCATCG
Ans. 0

* * *

Target: SALL4 ZFC4 R900W (HT-SELEX) (Mus musculus, UniProt Q8BX22 870-940, R900W)
Sequence: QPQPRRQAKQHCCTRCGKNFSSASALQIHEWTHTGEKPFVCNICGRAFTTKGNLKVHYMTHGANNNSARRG
Assay: HT-SELEX; high values mean tight binding
Conditions: protein: recombinant; vector His6-GST; dsDNA, one strand shown
For each of the sequences below, state its binding signal.
Give bare numbers, in fold-change vs cycle 0.

As a guide, the following entries are already answered.
[[record]]
chain_sequence = "CCGTAA"
assayed_target = "SALL4 ZFC4 R900W (HT-SELEX) (Mus musculus, UniProt Q8BX22 870-940, R900W)"
uom = "fold-change vs cycle 0"
observed = 0.78

[[record]]
chain_sequence = "CTGTAA"
assayed_target = "SALL4 ZFC4 R900W (HT-SELEX) (Mus musculus, UniProt Q8BX22 870-940, R900W)"
uom = "fold-change vs cycle 0"
observed = 1.42

[[record]]
chain_sequence = "CGACTC"
assayed_target = "SALL4 ZFC4 R900W (HT-SELEX) (Mus musculus, UniProt Q8BX22 870-940, R900W)"
uom = "fold-change vs cycle 0"
observed = 0.391

[[record]]
chain_sequence = "GAACAC"
assayed_target = "SALL4 ZFC4 R900W (HT-SELEX) (Mus musculus, UniProt Q8BX22 870-940, R900W)"
uom = "fold-change vs cycle 0"
observed = 0.901

[[record]]
chain_sequence = "TCTGCA"
assayed_target = "SALL4 ZFC4 R900W (HT-SELEX) (Mus musculus, UniProt Q8BX22 870-940, R900W)"
uom = "fold-change vs cycle 0"
observed = 0.678


Your task in this section: give binding signal for each listed record.
1. GAGCCA
2. AGAACG
3. GGTGTA
4. CACGTG
5. CGCAGC
6. GGTTCA

Ans.
1: 0.301; 2: 0.817; 3: 0.855; 4: 0.459; 5: 0.0883; 6: 0.916

* * *

Molecular target: SALL4 ZFC4 R900W (HT-SELEX) (Mus musculus, UniProt Q8BX22 870-940, R900W)
Sequence: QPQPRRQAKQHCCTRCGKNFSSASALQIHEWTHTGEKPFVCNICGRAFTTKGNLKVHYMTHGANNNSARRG
Test: HT-SELEX; high values mean tight binding
Conditions: protein: recombinant; vector His6-GST; dsDNA, one strand shown
Endpoint name: binding signal
A complete answer gives the number and then names the unit.

Could you report binding signal for every entry in the following list?
1. GATTGA
2. AGGGCG
3. CACATA

Ans.
1: 1.46 fold-change vs cycle 0; 2: 0.146 fold-change vs cycle 0; 3: 1.28 fold-change vs cycle 0

* * *

Answer each item with its documented binding signal.
Biological target: SALL4 ZFC4 WT (HT-SELEX) (Mus musculus, UniProt Q8BX22 870-940)
Sequence: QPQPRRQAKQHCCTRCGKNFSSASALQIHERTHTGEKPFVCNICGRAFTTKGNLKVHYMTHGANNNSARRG
Assay: HT-SELEX; high values mean tight binding
Conditions: protein: recombinant; vector His6-GST; dsDNA, one strand shown
One number for each entry, in fold-change vs cycle 0.

Solved entries (count: 5):
[[record]]
chain_sequence = "CAAGAA"
uom = "fold-change vs cycle 0"
observed = 1.26

[[record]]
chain_sequence = "GGTTAA"
uom = "fold-change vs cycle 0"
observed = 1.23

[[record]]
chain_sequence = "GTTCAA"
uom = "fold-change vs cycle 0"
observed = 1.2

[[record]]
chain_sequence = "AGGGAT"
uom = "fold-change vs cycle 0"
observed = 0.998

[[record]]
chain_sequence = "CCATAC"
uom = "fold-change vs cycle 0"
observed = 0.84


Please go through the list and note binding signal for each sequence.
1. AGCTTG
2. ACATAA

Ans.
0.638
2.21

Here are 6 sequences. What values of binding signal were reported for them?
1. ACTCAA
2. AATCTC
3. AGGGAA
4. CTAGCA
5. CGGTAG
6. AACCGA

Ans.
1: 1.26; 2: 1.38; 3: 0.891; 4: 0.695; 5: 0.351; 6: 0.657

Batch request: binding signal for each of the following sequences.
1. AGTACT
2. TCAGAA
3. CTCCAA
4. AACCCA

Ans.
1. 1.32
2. 1.27
3. 0.746
4. 0.813

* * *

Target: SALL4 ZFC4 G921D (HT-SELEX) (Mus musculus, UniProt Q8BX22 870-940, G921D)
Sequence: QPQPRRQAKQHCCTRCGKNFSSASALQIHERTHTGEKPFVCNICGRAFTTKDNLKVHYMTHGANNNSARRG
Assay: HT-SELEX; high values mean tight binding
Settings: protein: recombinant; vector His6-GST; dsDNA, one strand shown
In plain terms, low binding signal, meaning strictly below 1 fold-change vs cycle 0, gives rule met, and everything else gives rule not met.

Qu. Say whether its binding signal is strictly beneath 1 fold-change vs cycle 0. Entry: CCGAGC
Ans. rule met

* * *

Molecular target: SALL4 ZFC4 R900W (HT-SELEX) (Mus musculus, UniProt Q8BX22 870-940, R900W)
Sequence: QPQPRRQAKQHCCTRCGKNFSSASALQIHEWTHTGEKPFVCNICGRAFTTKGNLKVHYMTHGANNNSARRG
Assay: HT-SELEX; high values mean tight binding
Conditions: protein: recombinant; vector His6-GST; dsDNA, one strand shown
Endpoint name: log10 binding signal (log10 of the value in fold-change vs cycle 0)
Heads up, the numbers here are log10 of binding signal in fold-change vs cycle 0 units.

Sample records with log10 binding signal:
[[record]]
chain_sequence = "GACATC"
assayed_target = "SALL4 ZFC4 R900W (HT-SELEX) (Mus musculus, UniProt Q8BX22 870-940, R900W)"
observed = -0.06

[[record]]
chain_sequence = "AGCGCT"
assayed_target = "SALL4 ZFC4 R900W (HT-SELEX) (Mus musculus, UniProt Q8BX22 870-940, R900W)"
observed = -0.72

[[record]]
chain_sequence = "CATGGG"
assayed_target = "SALL4 ZFC4 R900W (HT-SELEX) (Mus musculus, UniProt Q8BX22 870-940, R900W)"
observed = -0.27

[[record]]
chain_sequence = "ACAGGG"
assayed_target = "SALL4 ZFC4 R900W (HT-SELEX) (Mus musculus, UniProt Q8BX22 870-940, R900W)"
observed = -0.24


Okay, here is my list. What is log10 binding signal for each of these?
1. CGCGCG
2. AATAAG
3. AGCAGG
4. CCGCAC
5. CAAGAC

Ans.
1. -1.66
2. 0.33
3. -0.32
4. -0.93
5. -0.07

* * *

Molecular target: SALL4 ZFC4 R900W (HT-SELEX) (Mus musculus, UniProt Q8BX22 870-940, R900W)
Sequence: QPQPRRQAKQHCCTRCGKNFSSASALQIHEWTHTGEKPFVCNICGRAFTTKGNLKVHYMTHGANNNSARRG
Test: HT-SELEX; high values mean tight binding
Conditions: protein: recombinant; vector His6-GST; dsDNA, one strand shown
Endpoint name: binding signal (fold-change vs cycle 0)
Answers are plain numbers, in fold-change vs cycle 0.

Solved cases (5 shown):
[[record]]
chain_sequence = "TGGCCA"
assayed_target = "SALL4 ZFC4 R900W (HT-SELEX) (Mus musculus, UniProt Q8BX22 870-940, R900W)"
endpoint_name = "binding signal"
observed = 0.236

[[record]]
chain_sequence = "CCCCCA"
assayed_target = "SALL4 ZFC4 R900W (HT-SELEX) (Mus musculus, UniProt Q8BX22 870-940, R900W)"
endpoint_name = "binding signal"
observed = 0.312

[[record]]
chain_sequence = "AAGTAA"
assayed_target = "SALL4 ZFC4 R900W (HT-SELEX) (Mus musculus, UniProt Q8BX22 870-940, R900W)"
endpoint_name = "binding signal"
observed = 2.26

[[record]]
chain_sequence = "GCGAGC"
assayed_target = "SALL4 ZFC4 R900W (HT-SELEX) (Mus musculus, UniProt Q8BX22 870-940, R900W)"
endpoint_name = "binding signal"
observed = 0.103

[[record]]
chain_sequence = "GAAACC"
assayed_target = "SALL4 ZFC4 R900W (HT-SELEX) (Mus musculus, UniProt Q8BX22 870-940, R900W)"
endpoint_name = "binding signal"
observed = 0.843


Below: the item to evaluate.
Qu. Hello, please tell me recorded binding signal for this one: GCATGC
Ans. 0.3
